tgt: Neuropeptide Y receptor type 5 (Homo sapiens)
Sequence (Q15761 whole entry): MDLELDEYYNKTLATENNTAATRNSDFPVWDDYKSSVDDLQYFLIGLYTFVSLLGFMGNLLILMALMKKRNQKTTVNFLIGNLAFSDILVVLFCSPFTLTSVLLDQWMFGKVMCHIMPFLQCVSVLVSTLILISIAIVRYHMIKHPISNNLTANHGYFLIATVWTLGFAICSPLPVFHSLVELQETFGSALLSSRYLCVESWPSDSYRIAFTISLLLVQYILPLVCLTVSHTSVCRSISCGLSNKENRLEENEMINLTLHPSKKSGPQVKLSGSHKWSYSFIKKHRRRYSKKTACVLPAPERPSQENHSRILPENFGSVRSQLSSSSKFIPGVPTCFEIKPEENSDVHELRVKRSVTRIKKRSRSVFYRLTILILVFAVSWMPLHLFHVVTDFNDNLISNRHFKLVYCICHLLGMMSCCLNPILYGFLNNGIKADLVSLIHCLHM
assay_comment: Displacement of Cy5-pNPY from human Y5 receptor expressed in human HEC-1B cells after 90 to 120 mins by flow cytometry
Assay type: cell-based
Residues, ends and D or L forms follow the SMILES beside them.
quantity_kind: Ki

Response field Ki (Neuropeptide Y receptor type 5 (Homo sapiens)) for item CC[C@H](C)[C@H](NC(=O)[C@H](Cc1ccc(O)cc1)NC(=O)[C@H](Cc1cnc[nH]1)NC(=O)[C@H](CCCN=C(N)N)NC(C)=O)C(=O)N[C@@H](CC(N)=O)C(=O)N[C@@H](CC(C)C)C(=O)N[C@H](C(=O)N[C@H](C(=O)N[C@@H](CCCN=C(N)N)C(=O)N[C@H]1CCC[C@H]1C(=O)N[C@@H](CCCN=C(N)N)C(=O)N[C@@H](Cc1ccc(O)cc1)C(N)=O)[C@@H](C)O)[C@@H](C)CC (HELM PEPTIDE1{[ac].R.H.Y.I.N.L.I.T.R.[O=C([C@@H]1CCC[C@@H]1N[*:1])[*:2]].R.Y.[am]}$$$$V2.0) : > 500 nM

----------
tgt: Neuropeptide Y receptor type 2 (Homo sapiens, UniProt P49146)
Sequence (P49146 whole entry): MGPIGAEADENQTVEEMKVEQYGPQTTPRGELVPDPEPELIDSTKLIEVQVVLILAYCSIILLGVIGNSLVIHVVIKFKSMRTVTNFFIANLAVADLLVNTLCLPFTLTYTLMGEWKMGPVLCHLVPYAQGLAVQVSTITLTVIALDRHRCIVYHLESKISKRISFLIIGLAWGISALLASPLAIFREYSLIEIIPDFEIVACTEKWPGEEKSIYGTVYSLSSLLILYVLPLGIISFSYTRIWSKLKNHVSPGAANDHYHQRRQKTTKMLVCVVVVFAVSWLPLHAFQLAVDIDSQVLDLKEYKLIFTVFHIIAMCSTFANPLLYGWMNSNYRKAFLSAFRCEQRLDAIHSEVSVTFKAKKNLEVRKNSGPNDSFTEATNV
assay_comment: Binding affinity to Y2 receptor (unknown origin) expressed in human LN319 cells by radioligand binding assay
Assay type: cell-based
quantity_kind: pIC50
# pIC50 is unitless: minus log10 of the molar concentration; print number only

The value of pIC50 measured for the substance "Ac-RHYINLITRQRY-NH2" turned out to be 6.88

----------
tgt: Neuropeptide Y receptor type 1 (Homo sapiens, UniProt P25929)
Sequence (P25929 whole entry): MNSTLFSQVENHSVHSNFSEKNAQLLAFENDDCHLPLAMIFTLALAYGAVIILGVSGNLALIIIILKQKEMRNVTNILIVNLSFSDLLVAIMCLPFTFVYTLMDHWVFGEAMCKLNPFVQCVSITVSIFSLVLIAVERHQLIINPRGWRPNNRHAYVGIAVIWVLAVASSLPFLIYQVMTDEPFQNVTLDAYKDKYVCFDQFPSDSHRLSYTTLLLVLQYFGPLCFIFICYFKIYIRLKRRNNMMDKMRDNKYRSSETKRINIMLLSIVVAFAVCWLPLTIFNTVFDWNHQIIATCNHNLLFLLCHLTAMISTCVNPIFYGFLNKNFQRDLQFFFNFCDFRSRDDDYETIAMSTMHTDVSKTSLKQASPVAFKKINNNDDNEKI
assay_comment: Displacement of Cy5-pNPY from human Y1 receptor expressed in HEL cells after 90 to 120 mins by flow cytometry
Type: cell-based
Residues, ends and D or L forms follow the SMILES beside them.
For each record, write down the corresponding Ki.

The value of Ki measured for the molecule CCCC[C@H](NC(=O)[C@H](CC(N)=O)NC(=O)[C@@H](NC(=O)[C@H](Cc1ccc(O)cc1)NC(=O)[C@H](CCCNC(=N)N)NC(=O)[C@H](CCCNC(=N)N)NC(C)=O)[C@@H](C)CC)C(=O)N[C@@H](CC(C)C)C(=O)N[C@H](C(=O)N[C@@H](CCCNC(=N)N)C(=O)N[C@H]1CC[C@H]1C(=O)N[C@@H](CCCNC(=N)N)C(=O)N[C@@H](Cc1ccc(O)cc1)C(N)=O)[C@@H](C)O (HELM PEPTIDE1{[ac].R.R.Y.I.N.[Nle].L.T.R.[O=C([C@@H]1CC[C@@H]1N[*:1])[*:2]].R.Y.[am]}$$$$V2.0) turned out to be > 1000 nM

The value of Ki measured for the molecule CC[C@H](C)[C@H](NC(=O)[C@H](Cc1ccc(O)cc1)NC(=O)[C@H](Cc1cnc[nH]1)NC(=O)[C@H](CCCNC(=N)N)NC(C)=O)C(=O)N[C@@H](CC(N)=O)C(=O)N[C@@H](CC(C)C)C(=O)N[C@H](C(=O)N[C@H](C(=O)N[C@@H](CCCNC(=N)N)C(=O)N[C@H]1CC[C@H]1C(=O)N[C@@H](CCCNC(=N)N)C(=O)N[C@@H](Cc1ccc(O)cc1)C(N)=O)[C@@H](C)O)[C@@H](C)CC (HELM PEPTIDE1{[ac].R.H.Y.I.N.L.I.T.R.[O=C([C@@H]1CC[C@@H]1N[*:1])[*:2]].R.Y.[am]}$$$$V2.0) turned out to be > 1000 nM

The value of Ki measured for the molecule CC(=O)N[C@@H](Cc1ccc(O)cc1)C(=O)N[C@@H](CCCNC(=N)N)C(=O)N[C@H]1CCC[C@H]1C(=O)N[C@@H](CCCN=C(N)N)C(=O)N[C@@H](Cc1ccc(O)cc1)C(N)=O (HELM PEPTIDE1{[ac].Y.R.[O=C([C@@H]1CCC[C@@H]1N[*:1])[*:2]].R.Y.[am]}$$$$V2.0) turned out to be > 1000 nM
